- System: A2780AD cells
- MEASUREMENT_DESCRIPTION: Cytotoxicity (antiproliferation assay) in A2780AD (pGp overexpressing)
- Assay type: cell-based, human
- TEST_SETTINGS: Homo sapiens, A2780AD, read-out: IC50 A2780AD
pIC50: −log10 of the molar value.
# Lookup of reported pIC50 keyed by entry
QUANTITY: pIC50

>>> df
                                   compound  experimental_target  inequality_sign  experimental_result
0  COc1cc2cc(c1Cl)N(C)C(=O)CC(O)C1(C)OC1C(C)C=CC(=O)C(OC)C=CC=C(C)C2 (centres unmarked)        A2780AD cells                =                 6.01
1  COc1cc2cc(c1Cl)N(C)C(=O)CC(O)C1(C)OC1C(C)C1C=C(NC(=O)O1)C(OC)C=CC=C(C)C2 (centres unmarked)        A2780AD cells                <                 4.71
